Test system: Mus musculus
Assay: Neurotoxicity in ip dosed CF1 albino mouse assessed as ability to maintain equilibrium for 1 min on […] after 0.5 hrs by rotarod test
Format: toxicity, organism-based
Settings: in vivo
value-kind: Activity (mg/kg)
Number only, in mg/kg; omit the unit.

QUERY: Which Activity reading was recorded for the molecule O=C1CC(c2ccccc2C(F)(F)F)C(=O)N1CCCN1CCN(c2cccc(Cl)c2)CC1 (stereo not given) ?
RESULT: 100

QUERY: Which Activity reading was recorded for the molecule COc1ccccc1N1CCN(CCN2C(=O)CC(c3ccccc3C)C2=O)CC1 (stereo not given) ?
RESULT: 300

QUERY: Which Activity reading was recorded for the molecule COc1ccccc1N1CCN(CN2C(=O)CC(c3ccccc3C)C2=O)CC1.Cl (stereo not given) ?
RESULT: 100

###

Experiment: Neurotoxicity in po dosed rat assessed as ability to maintain equilibrium for 1 min on […] by rotarod test
Assay type: toxicity, organism-based
Details: in vivo
compounds and their reported TD50 at 1 min

>>> observed("O=C1NC(=O)C(c2ccccc2)(c2ccccc2)N1 [PHENYTOIN]")
"> 500 mg/kg"

Then there is this compound:
QUERY: Which TD50 at 1 min reading was recorded for the compound O=C1CC(c2ccccc2C(F)(F)F)C(=O)N1CN1CCN(c2ccccc2)CC1 (configuration not stated) ?
RESULT: > 500 mg/kg

###

System: Mus musculus
Assay: Anticonvulsant activity in ip dosed CF1 albino mouse assessed as inhibition of maximal electroshock-induced seizures after 0.5 hrs
Format: functional
compounds and their reported Activity
Number only, in mg/kg; omit the unit.

Please review the following examples before continuing.
>>> observed("O=C1CC(c2ccccc2C(F)(F)F)C(=O)N1CCCN1CCN(c2cccc(C(F)(F)F)c2)CC1 (stereo unspecified)")
30
>>> observed("O=C1NC(=O)C(c2ccccc2)(c2ccccc2)N1")
30
>>> observed("Cc1ccccc1C1CC(=O)N(CCN2CCN(c3cccc(C(F)(F)F)c3)CC2)C1=O (stereo unspecified)")
300

QUERY: Which Activity reading was recorded for the compound Cc1ccccc1C1CC(=O)N(CN2CCN(c3cccc(C(F)(F)F)c3)CC2)C1=O (stereo unspecified) ?
RESULT: 30

QUERY: Which Activity reading was recorded for the compound O=C1CC(c2ccccc2C(F)(F)F)C(=O)N1CCCN1CCN(c2ccccc2)CC1 (stereo unspecified) ?
RESULT: 300

###

System: Mus musculus
Assay: Neurotoxicity in ip dosed CF1 albino mouse assessed as ability to maintain equilibrium for 1 min on […] after 0.5 hrs by rotarod test
Assay type: toxicity, organism-based
Details: in vivo
value-kind: Activity

Please review the following examples before continuing.
>>> observed("O=C1CC(c2ccccc2C(F)(F)F)C(=O)N1CN1CCN(c2ccccc2F)CC1 (configuration not stated)")
"100 mg/kg"
>>> observed("COc1ccccc1N1CCN(CN2C(=O)CC(c3ccccc3C(F)(F)F)C2=O)CC1 (configuration not stated)")
"100 mg/kg"
>>> observed("Cc1ccccc1C1CC(=O)N(CCN2CCN(c3ccccc3)CC2)C1=O (configuration not stated)")
"300 mg/kg"
>>> observed("O=C1CC(c2ccccc2C(F)(F)F)C(=O)N1CN1CCN(c2cccc(C(F)(F)F)c2)CC1 (configuration not stated)")
"300 mg/kg"
>>> observed("Cc1ccccc1C1CC(=O)N(CN2CCN(c3ccccc3)CC2)C1=O (configuration not stated)")
"100 mg/kg"

QUERY: Which Activity reading was recorded for the compound Cc1ccccc1C1CC(=O)N(CCCN2CCN(c3cccc(Cl)c3)CC2)C1=O (configuration not stated) ?
RESULT: 300 mg/kg

QUERY: Which Activity reading was recorded for the compound O=C1CC(c2ccccc2C(F)(F)F)C(=O)N1CCCN1CCN(c2ccccc2)CC1 (configuration not stated) ?
RESULT: 300 mg/kg

QUERY: Which Activity reading was recorded for the compound COc1ccccc1N1CCN(CCCN2C(=O)CC(c3ccccc3C)C2=O)CC1 (configuration not stated) ?
RESULT: 100 mg/kg

QUERY: Which Activity reading was recorded for the compound COc1ccccc1N1CCN(CCCN2C(=O)CC(c3ccccc3C(F)(F)F)C2=O)CC1 (configuration not stated) ?
RESULT: 100 mg/kg

QUERY: Which Activity reading was recorded for the compound COc1ccccc1N1CCN(CCN2C(=O)CC(c3ccccc3C(F)(F)F)C2=O)CC1 (configuration not stated) ?
RESULT: 300 mg/kg

###

compounds and their reported Activity
Tested on: Mus musculus
Test: Anticonvulsant activity in ip dosed CF1 albino mouse assessed as inhibition of maximal electroshock-induced seizures after 0.5 hrs
Type: functional

Please review the following examples before continuing.
>>> observed("Cc1ccccc1C1CC(=O)N(CCCN2CCN(c3cccc(C(F)(F)F)c3)CC2)C1=O (stereo unspecified)")
"100 mg/kg"
>>> observed("COc1ccccc1N1CCN(CN2C(=O)CC(c3ccccc3C)C2=O)CC1.Cl (stereo unspecified)")
"300 mg/kg"
>>> observed("Cc1ccccc1C1CC(=O)N(CCCN2CCN(c3cccc(Cl)c3)CC2)C1=O (stereo unspecified)")
"300 mg/kg"

QUERY: Which Activity reading was recorded for the compound O=C1CC(c2ccccc2C(F)(F)F)C(=O)N1CN1CCN(c2cccc(C(F)(F)F)c2)CC1 (stereo unspecified) ?
RESULT: 100 mg/kg

QUERY: Which Activity reading was recorded for the compound COc1ccccc1N1CCN(CN2C(=O)CC(c3ccccc3C(F)(F)F)C2=O)CC1 (stereo unspecified) ?
RESULT: 300 mg/kg

QUERY: Which Activity reading was recorded for the compound O=C1CC(c2ccccc2C(F)(F)F)C(=O)N1CCCN1CCN(c2cccc(Cl)c2)CC1 (stereo unspecified) ?
RESULT: 100 mg/kg

###

Tested on: Mus musculus
Experiment: Neurotoxicity in ip dosed CF1 albino mouse assessed as ability to maintain equilibrium for 1 min on […] after 0.5 hrs by rotarod test
Type: toxicity, organism-based
Conditions: in vivo
value-kind: Activity
Give me the value, and tack the unit on after it.

Please review the following examples before continuing.
>>> observed("Cc1ccccc1C1CC(=O)N(CN2CCN(c3cccc(C(F)(F)F)c3)CC2)C1=O (configuration not stated)")
"300 mg/kg"
>>> observed("Cc1ccccc1C1CC(=O)N(CCN2CCN(c3ccccc3F)CC2)C1=O (configuration not stated)")
"300 mg/kg"

QUERY: Which Activity reading was recorded for the molecule O=C1CC(c2ccccc2C(F)(F)F)C(=O)N1CCCN1CCN(c2cccc(C(F)(F)F)c2)CC1 (configuration not stated) ?
RESULT: 300 mg/kg

QUERY: Which Activity reading was recorded for the molecule Cc1ccccc1C1CC(=O)N(CN2CCN(c3ccccc3F)CC2)C1=O (configuration not stated) ?
RESULT: 300 mg/kg

QUERY: Which Activity reading was recorded for the molecule O=C1CC(c2ccccc2C(F)(F)F)C(=O)N1CN1CCN(c2ccccc2)CC1 (configuration not stated) ?
RESULT: 300 mg/kg

QUERY: Which Activity reading was recorded for the molecule O=C1NC(=O)C(c2ccccc2)(c2ccccc2)N1 ?
RESULT: 100 mg/kg

QUERY: Which Activity reading was recorded for the molecule O=C1CC(c2ccccc2C(F)(F)F)C(=O)N1CN1CCN(c2cccc(Cl)c2)CC1 (configuration not stated) ?
RESULT: 100 mg/kg
